- tested_system: tetanus neurotoxin (TeNT), authentic tetanus holotoxin (Clostridium tetani, UniProt P04958 2-1315)
- Sequence (P04958 2-457 limits assumed, chain 1 of 2): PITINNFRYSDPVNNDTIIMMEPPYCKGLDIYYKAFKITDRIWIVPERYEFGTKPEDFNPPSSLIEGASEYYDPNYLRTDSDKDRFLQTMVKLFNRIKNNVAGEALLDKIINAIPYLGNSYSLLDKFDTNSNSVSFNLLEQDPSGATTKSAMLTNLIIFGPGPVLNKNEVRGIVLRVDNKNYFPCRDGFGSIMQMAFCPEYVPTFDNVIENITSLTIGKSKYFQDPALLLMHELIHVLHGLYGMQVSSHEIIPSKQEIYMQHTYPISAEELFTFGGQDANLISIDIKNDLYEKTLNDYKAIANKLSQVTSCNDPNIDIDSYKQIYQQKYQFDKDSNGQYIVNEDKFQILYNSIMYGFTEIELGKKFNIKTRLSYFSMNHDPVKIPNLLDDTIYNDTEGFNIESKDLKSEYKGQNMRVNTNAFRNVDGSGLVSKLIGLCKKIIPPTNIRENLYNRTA
- Sequence (P04958 458-1315 limits assumed, chain 2 of 2): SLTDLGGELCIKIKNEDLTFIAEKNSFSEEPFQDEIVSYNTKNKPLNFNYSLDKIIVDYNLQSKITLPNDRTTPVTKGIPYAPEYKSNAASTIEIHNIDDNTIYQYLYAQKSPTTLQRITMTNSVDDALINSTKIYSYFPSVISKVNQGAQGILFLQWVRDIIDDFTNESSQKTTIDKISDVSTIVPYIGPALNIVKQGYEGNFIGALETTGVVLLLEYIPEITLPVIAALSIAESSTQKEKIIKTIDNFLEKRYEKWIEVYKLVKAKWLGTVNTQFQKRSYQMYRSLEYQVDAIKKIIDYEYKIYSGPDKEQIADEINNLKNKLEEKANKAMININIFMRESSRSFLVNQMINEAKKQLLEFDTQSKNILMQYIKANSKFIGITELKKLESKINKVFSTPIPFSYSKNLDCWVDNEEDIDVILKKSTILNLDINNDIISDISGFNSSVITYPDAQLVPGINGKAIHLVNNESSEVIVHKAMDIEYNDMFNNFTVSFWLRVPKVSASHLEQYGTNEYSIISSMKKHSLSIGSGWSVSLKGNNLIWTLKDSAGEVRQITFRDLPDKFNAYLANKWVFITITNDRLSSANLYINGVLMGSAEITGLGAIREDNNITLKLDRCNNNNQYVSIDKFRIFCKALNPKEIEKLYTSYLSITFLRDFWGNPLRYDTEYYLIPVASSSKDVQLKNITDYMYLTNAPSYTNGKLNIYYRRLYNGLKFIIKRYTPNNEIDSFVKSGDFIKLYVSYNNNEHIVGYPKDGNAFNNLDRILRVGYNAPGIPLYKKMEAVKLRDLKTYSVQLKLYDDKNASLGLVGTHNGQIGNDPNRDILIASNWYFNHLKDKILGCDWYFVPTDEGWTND
- assay_comment: GT1b-TeNT inhibition ELISA
Parameter: minimal absorbance value (GT1b-TeNT inhibition). Scope: all listed entries.
Put down the number, then write its unit next to it.

Examples with their reported minimal absorbance value (GT1b-TeNT inhibition) follow.
# binder, observed
data = [
    ("SVT06-GS2-SVA12M2-H6 (bispecific antibody) QVQLQESGGGSVQAGGSLRLSCTASELSYDDYTIAWFRRAAGEGRVEDGEGVASITKSYDRAYDNKINYGHSVKGRFTISRDNAKNTVYLQMTDLLPSDTAVYYCALDITPPGGVGASLTEGFLFDYWGQGTQVTVSSGGGGSGGGSEVQLVESGGGLVQAGGSLRLSCAASGRTFSYYPMAWFRQAPGQEREFVAAIIGADTTYYADSLKGRFTISRDNAKNMVYLQMNSLKPEDTAVYYCAARNTYWSDVYYREGQYTNWGQGTQVTVSSHHHHHH", "0.18 A450"),
    ("SVG06L (VHH) VHH: QVQLQESGGALVQPGGSLRLSCAASGFPFSAYDMTWVRQAPGQGLEWVSTIHKSGGITTYADSVKGRFTISRDNAKNTLYLQMNNLESEDTAVYYCAKALRAHNSDYVGRNALGSWGEGTLVTVSS", "0.8 A450"),
]

Turning to the following binder.
Quick one: minimal absorbance value (GT1b-TeNT inhibition) for SVT06-GS2-SVG13M4-H6 (bispecific antibody) QVQLQESGGGSVQAGGSLRLSCTASELSYDDYTIAWFRRAAGEGRVEDGEGVASITKSYDRAYDNKINYGHSVKGRFTISRDNAKNTVYLQMTDLLPSDTAVYYCALDITPPGGVGASLTEGFLFDYWGQGTQVTVSSGGGGSGGGSEVQLVESGGGLVQPGGSLRLSCEASGFTFDDYGMSWVRQAPGKGLEWVSSLTPNGGSTYYADSVKGRFTISRDNAKNTLYLQMNSLKPEDTALYYCAKNSYYGAMDYWGQGTQVTVSSHHHHHH ?
0.22 A450
